The values you see were collected from PubChem BioAssay AID1508610.

# targetDesc: G-protein coupled receptor 151 (Homo sapiens)
# procedureDetails: GPR151 activator potency, dose response, cell-based (AID 1508610)
# experimentalContext: cell-based GPR151 activation reporter
Activity calls are given as the source filed them. The rule behind the calls is not given here.
Hello, when you answer, please use one of the following outcomes: active, inactive

Reference set, count: 4
{"columns": ["molecule", "label"],
 "data": [
  ["COc1ccccc1C1c2c(oc3ccc(C)cc3c2=O)C(=O)N1CCN1CCOCC1 (stereo unspecified)", "active"],
  ["COc1ccc(-c2ccc(C(=O)NCCO)s2)cn1", "inactive"],
  ["CC1(C)Cc2c(C#N)c(N3CCCC3)nc(-c3ccco3)c2CO1", "inactive"],
  ["COc1ccc(C(=O)/C=C\\N2CCOCC2)cc1", "inactive"]
]}

Q: Record request — test call for O=C1N[C@@H](Cc2ccc(Cl)cc2)C(=O)N2CCN(C(=O)c3cc(Cl)cc(Cl)c3)C[C@H]12
Ans: inactive

Q: In this assay, the call recorded for CC(c1ccccc1)C1CC(=O)N(Cc2ccccc2)C1=O (stereo unspecified) was what?
Ans: inactive

Q: Could you please tell me the result logged for N#Cc1cccc(C(=O)NC2CCCC2)c1 in this assay?
Ans: inactive

Q: What is the recorded call for this molecule in the test? COc1ccc(-c2ccc(C(N)=O)s2)cc1
Ans: inactive

---

# targetDesc: G-protein coupled receptor 151 (Homo sapiens)
# procedureDetails: GPR151 activator potency, dose response, cell-based (AID 1508610)
# experimentalContext: cell-based GPR151 activation reporter
The source made the active and inactive calls. No rule for the calls is given here.
Form field: EC50 (one value per entry).

Q: Note EC50 for the compound shown: O=C(Nc1ccc(NC(=O)c2cccc3c(Br)cccc23)cc1)c1ccco1
Ans: > 24.4 µM (inactive)

Q: Report measured EC50; entry is CCCN1C(=O)C[n+]2ccccc2C1C(=O)Nc1ccccc1C (centres undefined)
Ans: > 28 µM (inactive)

Q: Please report the measured EC50 for CCC[C@@H]1NC(=O)[C@@H]2C[C@H](NCc3cc(C)ccc3F)CN2C1=O
Ans: > 28 µM (inactive)

Q: Give recorded EC50. CCC(C(=O)OC)n1cnc2scc(-c3cccc([N+](=O)[O-])c3)c2c1=O (centres undefined)
Ans: > 28 µM (inactive)

Q: Answer with the recorded EC50 of CCN=C1SC(CC(=O)Nc2sc(C)c(C)c2C(=O)OC)C(=O)N1CC (centres undefined) only.
Ans: > 28.2 µM (inactive)

---

# targetDesc: G-protein coupled receptor 151 (Homo sapiens) (UniProt Q8TDV0)
# Sequence (Q8TDV0 whole entry, looked up): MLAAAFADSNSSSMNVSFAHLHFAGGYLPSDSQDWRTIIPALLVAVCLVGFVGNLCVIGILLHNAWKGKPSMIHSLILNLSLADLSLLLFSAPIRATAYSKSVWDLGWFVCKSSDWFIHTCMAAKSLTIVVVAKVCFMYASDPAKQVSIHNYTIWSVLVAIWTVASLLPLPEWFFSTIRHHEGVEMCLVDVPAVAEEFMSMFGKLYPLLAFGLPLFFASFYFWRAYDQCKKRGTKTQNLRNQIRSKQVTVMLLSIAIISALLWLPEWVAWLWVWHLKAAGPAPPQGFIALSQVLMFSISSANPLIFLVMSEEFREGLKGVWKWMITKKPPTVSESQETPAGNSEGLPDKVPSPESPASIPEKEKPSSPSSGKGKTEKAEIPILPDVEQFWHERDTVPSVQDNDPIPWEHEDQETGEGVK
# procedureDetails: GPR151 activator potency, dose response, cell-based (AID 1508610)
# experimentalContext: cell-based GPR151 activation reporter
Calls of active or inactive are those of the source. How the calls were made is not given here.
Would you mind answering with one of these outcomes? active, inactive

Below, 3 compounds whose answers are already recorded.
{"columns": ["compound", "label"],
 "data": [
  ["CC[C@@H](C(=O)C(C)[C@@H](O)[C@H](C)CCc1ccc(C)c(O)c1C(=O)O)C1OC(CC)(C2CC[C@](O)(CC)[C@H](C)O2)C[C@@H]1C (stereo partly drawn)", "inactive"],
  ["CCc1ccccc1N(CC(=O)Nc1ccccc1Cl)S(C)(=O)=O", "active"],
  ["OC(c1cccnc1)c1ccc2c(c1)CN(Cc1cccc(Cl)c1)CCO2 (stereo not drawn)", "inactive"]
]}

Q: Tell me the recorded outcome of this test for COCCNCCOc1ccc(C)cc1C .
Ans: inactive

Q: Hey, what did the test say about CCOCCOC(=O)C1=C(C)Nc2ccc(C)cc2S1 ?
Ans: inactive

Q: Assay result, entry NN1C(=O)c2ccccc2NC1C1CC=CCC1 (stereo not drawn) — outcome?
Ans: inactive

Q: # fetch the recorded call for CCOc1ccc(NC(=O)C(=O)NCCN2CCN(S(=O)(=O)c3ccc4ccccc4c3)CC2)cc1 here
Ans: inactive

Q: For CCOC(=O)C(=O)N1CCN(c2ccccc2)CC1 , which call appears in the assay record?
Ans: inactive

Q: Given CSC1=NSC2=NC(=O)/C(=C\c3ccc([N+](=O)[O-])cc3)C(=N)N12 , state the outcome it received in this test.
Ans: inactive

Q: Kindly provide the recorded test outcome for the following compound: Cc1ccc2nc(-c3ccccc3)[nH]c2c1
Ans: inactive

Q: Please state the recorded outcome for this compound: O=Cc1cccc(OCc2ccc(C(=O)O)cc2)c1
Ans: inactive

Q: Can you look up the reported call for O=C(O)c1ccc(COc2cccc(CO)c2)cc1 for me?
Ans: inactive

Q: Record request — test call for O=C(O)c1ccc(-n2cc(-c3ccc(Cl)cc3)cn2)cc1
Ans: inactive

Q: Please share the test call associated with O=C(O)C1CCCN(c2ncnc3scc(-c4ccccc4)c23)C1 (stereo not drawn) .
Ans: inactive
